tested.target: T1, Human T cell receptor on human primary T cells (human, UniProt P01848 1-140; P01850 1-176)
T1 TCR alpha (looked up): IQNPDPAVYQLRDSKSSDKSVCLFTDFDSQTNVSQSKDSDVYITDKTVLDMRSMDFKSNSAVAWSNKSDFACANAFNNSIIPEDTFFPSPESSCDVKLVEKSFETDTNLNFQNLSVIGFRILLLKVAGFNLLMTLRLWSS
T1 TCR beta (looked up): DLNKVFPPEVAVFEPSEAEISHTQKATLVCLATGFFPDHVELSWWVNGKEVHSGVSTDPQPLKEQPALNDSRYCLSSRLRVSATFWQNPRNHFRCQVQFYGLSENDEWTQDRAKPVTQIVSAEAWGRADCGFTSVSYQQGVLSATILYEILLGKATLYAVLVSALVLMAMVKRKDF
procedure.details: cell-based or functional assay
assay.endpoint: EC50 (M), KG-1a, Human T cell mediated killing
Supply the numeric figure in M, leaving out any unit text.

Example entries begin here.
Q. Name the recorded EC50 (M), KG-1a, Human T cell mediated killing of the binder listed here: T017000634 (bispecific antibody, also called A0110056A10(E1D)-35GS-T0170056G05(L11V, D27Y, L34Y, M77T, K83R, V89L, F91Y, F95L, Y99W)-A) DVQLVESGGGLVQAGGSLRLSCAASGITSKINDMGWYRQTPGNYREWVASITATGTTNYRDSVKGRFTISRDNAKSTVYLQMNSLKPEDTTVYYCNTFPPISNFWGQGTLVTVSSGGGGSGGGGSGGGGSGGGGSGGGGSGGGGSGGGGSEVQLVESGGGVVQPGGSLRLSCVASGYVHKINFYGWYRQAPGKEREKVAHISIGDQTDYADSAKGRFTISRDESKNTVYLQMNSLRPEDTALYYCRALSRIWPYDYWGQGTLVTVSSA
A. 4.4e-10

Q. Output EC50 (M), KG-1a, Human T cell mediated killing of T017000128 (bispecific antibody) DVQLVESGGGLVQPGGSLRLSCVASGDVHKINFLGWYRQAPGKEREKVAHISIGDQTDYADSAKGRFTISRDESKNMVYLQMNSLKPEDTAVYFCRAFSRIYPYDYWGQGTLVTVSSGGGGSGGGGSGGGGSGGGGSGGGGSGGGGSGGGGSEVQLVESGGGLVQAGGSLRLSCAASGITSKINDMGWYRQTPGNYREWVASITATGTTNYRDSVKGRFTISRDNAKSTVYLQMNSLKPEDTTVYYCNTFPPISNFWGQGTLVTVSSA
A. 1.3e-09

Could you now look at the following binder, please?
Q. Input T017000633 (bispecific antibody) DVQLVESGGGVVQPGGSLRLSCVASGYVHKINFYGWYRQAPGKEREKVAHISIGDQTDYADSAKGRFTISRDESKNTVYLQMNSLRPEDTALYYCRALSRIWPYDYWGQGTLVTVSSGGGGSGGGGSGGGGSGGGGSGGGGSGGGGSGGGGSEVQLVESGGGLVQAGGSLRLSCAASGITSKINDMGWYRQTPGNYREWVASITATGTTNYRDSVKGRFTISRDNAKSTVYLQMNSLKPEDTTVYYCNTFPPISNFWGQGTLVTVSSA , output reported EC50 (M), KG-1a, Human T cell mediated killing.
A. 6.8e-10
